- target-desc: 3H-gabapentin
- test-name: 3H-gabapentin radioligand saturation binding
- condition-context: DRM fractions from transfected tsA-201 cells; n = 4
endpoint-label: pKd
Answers are plain numbers, as −log10 of the molar value.

-- ask Kindly indicate its recorded pKd. Item: wild type α2δ-1 (rat) (from UniProt P54290) LEAVEM replaced by VVVVVV (hexavaline, V6)
-- reply 7.17

// data source = paper PMC5092059
